Hello, the source for this data is patent US20210380680A1, in case you need it.

- targetSystem: human Claudin 18.2 (CLDN18.2) (human, UniProt P56856-2 1-261)
- testDescription: cell-based or functional assay
quantityName: % ADCC @ 6.67 nM, NCI-N87-CLDN18.2, FcR-TANK (%)
Give bare numbers, in %.

Look over these answered cases.
>  <binder>
364D1A7-H2L2 (antibody, V domains shown, humanized IgG; constant regions not specified) VH: EVQLVESGGGLVQPGGSLRLSCAASGFTFSSFGMHWVRQAPGKGLEWVAYISSGSGSIYYADTVKGRFTISRDNPKNSLYLQMNSLRAEDTAVYYCATSYYYGNALEYWGQGTTVTVSS VL: DIVLTQSPDSLAVSLGERATINCKSSQSLFNVGNQKNYLTWYQQKPGQTPKLLIYWASTRKSGVPDRFSGSGSGTDFTLTISSLQAEDVAVYYCQNVYSYPLTFGGGTKVEIK

>  <dataValue>
9.4

$$$$
>  <binder>
413H9F8-H2L2 (antibody, V domains shown, humanized IgG; constant regions not specified) VH: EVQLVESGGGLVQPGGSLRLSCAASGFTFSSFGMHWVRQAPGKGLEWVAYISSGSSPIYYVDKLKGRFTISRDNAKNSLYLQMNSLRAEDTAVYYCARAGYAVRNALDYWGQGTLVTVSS VL: DIVMTQSPDSLAVSLGERATINCKSSQSLLNVGNQKNYLAWYQQKPGQPPKLLIYGASTRESGVPDRFSGSGSGTDFTLTISSLQAEDVAVYFCQNDLFYPLTFGGGTKVEIK

>  <dataValue>
13.7

$$$$

stdin: Give a short answer stating reported % ADCC @ 6.67 nM, NCI-N87-CLDN18.2, FcR-TANK for 364D1A7-H4L5 (antibody, V domains shown, humanized IgG; constant regions not specified) VH: DVQLVESGGGLVQPGGSLRLSCAASGFTFSSFGMHWVRQAPGKGLEWVAYISSGSGSIYYADTVKGRFTLSRDNPKNTLYLQMNSLRAEDTAVYYCATSYYYGNALEYWGQGTTVTVSS VL: DVVLTQSPDSLAVSLGERATISCKSSQSLFNVGNQKNYLTWYQQKPGQTPTLLIYWASTRKSGVPDRFTGSGSGTDFTLTISSLQAEDVAVYYCQNVYSYPLTFGAGTKVEIK .
stdout: 12
